Entries and their IC50
# Tested on: HCT-8 cells
# PROTOCOL: Cytotoxicity to HCT-8 cells
# Type: cell-based, human
# MEASUREMENT_CONDITIONS: read-out: Host cell IC50; HCT-8 cells, 48 h
Please respond with the number in µM and leave the unit unwritten.

>>> df
                               given_smiles  observed_value
0        CN(C)c1ccc(C(=O)NCCCCCCC(=O)NO)cc1             2.3
1  O=C1c2ccccc2C(=O)c2c(NCCc3ccc(O)cc3)ccc(NCCc3ccc(O)cc3)c21            51.2

Look up IC50 for this compound: O=Nc1ccc(O)c2ncccc12 36.7

Look up IC50 for this compound: CC(/C=C/C(=O)NO)=C\[C@@H](C)C(=O)c1ccc(N(C)C)cc1 1.6

Where these numbers come from: paper PMC7593347
